src = PubChem BioAssay AID1159580

assaySummary: chemical genetic growth profiling, strain panel (AID 1159580);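 further: tested at 20 µM; growth read once vehicle control cultures reached saturation at 30 °C; 1 = growth at the plate median or of vehicle wells; lower values mean less growth of the strain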
testSettings: S. cerevisiae deletion strains, growth OD, locus YMR219W, strain ESC1, stronger effect = lower value
Screen size: about 5,500 compounds; about 2,000 (36%) were called active. Roughly 18% stayed inconclusive and do not appear here. Some of the results follow.
assayEndpoint: normalized growth
Write the number on its own, no unit after it.

Noted for Cc1cc(S(=O)(=O)NCCNc2nccc(C(F)(F)F)n2)c(C)cc1Cl : its normalized growth reads 1.01

Noted for COc1ccccc1C1CCN(c2ncnc3scc(-c4ccccc4)c23)CC1 : its normalized growth reads 0.996

Noted for CCCc1ccc(/C(C)=N\O)cc1 : its normalized growth reads 0.932

Noted for Cc1noc(C)c1C(=O)N1CCOCC1 : its normalized growth reads 0.993

Noted for O=[N+]([O-])c1cc(C(F)(F)F)ccc1Sc1ccc(Cl)cc1 : its normalized growth reads 1.01

Noted for O=[N+]([O-])c1cc(Cl)c(Sc2ccccc2)cc1Sc1ccccc1 : its normalized growth reads 1.01

Noted for Nc1nc(Sc2cc(-n3cccc3)c(Cl)cc2[N+](=O)[O-])n[nH]1 : its normalized growth reads 1

Noted for CC(=O)c1ccc(Sc2ccccn2)c([N+](=O)[O-])c1 : its normalized growth reads 0.983

Noted for Cc1c(C)c(C)c(S(=O)(=O)Nc2ccccc2N)c(C)c1C : its normalized growth reads 0.999

Noted for Nc1nc(Sc2ccc(C(F)(F)F)cc2[N+](=O)[O-])n[nH]1 : its normalized growth reads 1

Noted for O=C(O)c1ccccc1Sc1c(C(=O)O)cc([N+](=O)[O-])cc1[N+](=O)[O-] : its normalized growth reads 1.01
